target: human insulin-like growth factor-II (IGF-II) (human, UniProt P01344 25-91); test: cell-based or functional assay
The entries below come with measured Max % Inhibition (333.3 nM), n = 1, IGF-II Proliferation, BxPC3 cells values attached.
Kindly provide the numeric value in % only, without the unit symbol.

# annotated cases, reported Max % Inhibition (333.3 nM), n = 1, IGF-II Proliferation, BxPC3 cells shown
binder: mAb 7.158.2 (antibody, V domains shown, Kappa light chain (L5/JK3); also called 7.158.1; 7_158_1) VH: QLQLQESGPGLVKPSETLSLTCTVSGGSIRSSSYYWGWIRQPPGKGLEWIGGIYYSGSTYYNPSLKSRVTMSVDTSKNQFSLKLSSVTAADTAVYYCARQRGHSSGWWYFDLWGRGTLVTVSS VL: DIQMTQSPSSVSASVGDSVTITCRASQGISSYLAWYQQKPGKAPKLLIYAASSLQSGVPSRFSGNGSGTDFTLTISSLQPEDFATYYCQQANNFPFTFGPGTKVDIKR
experimentalResult: 86.3
//
binder: mAb 7.34.1 (antibody, V domains shown, Fully human XenoMouse hybridoma mAb, lambda light chain (V1-13/JL2); also called ATCC PTA-7423) VH: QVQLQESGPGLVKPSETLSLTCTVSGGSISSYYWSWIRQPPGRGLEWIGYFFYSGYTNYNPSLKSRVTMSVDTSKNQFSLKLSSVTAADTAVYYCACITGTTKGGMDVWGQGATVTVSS VL: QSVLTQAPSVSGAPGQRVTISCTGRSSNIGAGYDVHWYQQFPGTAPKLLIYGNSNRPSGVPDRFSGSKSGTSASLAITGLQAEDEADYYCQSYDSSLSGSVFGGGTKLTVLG
experimentalResult: 117
//
binder: mAb 7.251.3 (antibody, V domains shown, Fully human XenoMouse hybridoma mAb, lambda light chain (V1-13/JL2); also called ATCC PTA-7422) VH: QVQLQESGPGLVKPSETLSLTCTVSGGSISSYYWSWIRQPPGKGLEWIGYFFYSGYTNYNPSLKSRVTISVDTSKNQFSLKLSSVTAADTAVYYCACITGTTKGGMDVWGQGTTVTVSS VL: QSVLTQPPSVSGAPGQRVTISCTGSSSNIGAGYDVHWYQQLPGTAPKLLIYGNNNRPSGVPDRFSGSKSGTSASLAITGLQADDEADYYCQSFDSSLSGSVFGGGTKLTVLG
experimentalResult: 128

Now look at this entry.
Given the entry mAb 7.234.2 (antibody, V domains shown, Kappa light chain (L5/JK3); also called 7.234.1; 7_234_1) VH: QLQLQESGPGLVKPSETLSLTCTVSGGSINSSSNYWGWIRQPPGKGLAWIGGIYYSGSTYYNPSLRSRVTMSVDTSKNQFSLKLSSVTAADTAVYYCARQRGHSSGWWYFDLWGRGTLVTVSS VL: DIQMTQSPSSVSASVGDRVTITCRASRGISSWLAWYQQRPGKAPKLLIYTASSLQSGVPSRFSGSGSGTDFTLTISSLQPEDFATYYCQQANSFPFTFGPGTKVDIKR , report its measured Max % Inhibition (333.3 nM), n = 1, IGF-II Proliferation, BxPC3 cells. 112
